Entries annotated with measured inhibition at 1 µM
- test_details: Inhibition of glucagon-induced glucose secretion in C57BL/6 mouse primary hepatocytes at 1 uM
- Assay type: functional
- assay_setup: C57BL/6, Hepatocyte
The figure you give is taken to be in %; do not add the unit.

CC(C)(C)N(Cc1ccc(C#N)cc1)CC(O)COc1cccc2[nH]ccc12 (stereo unspecified) = 49.3

Please give the measured inhibition at 1 µM for this molecule: Cc1ccc(CN(CC(O)COc2cccc3[nH]ccc23)C(C)C)cc1 (stereo unspecified) 59.5

Also COC(COc1cccc2c1ccn2C)CN(Cc1ccc(C)cc1)C(C)(C)C (stereo unspecified) , if possible. 56.8

Also CC(C)(C)N(CC(O)COc1cccc2[nH]ccc12)CC1CCCC1 (stereo unspecified) , if possible. 48.5

Also CN(C)c1ccc(CN(CC(O)COc2cccc3[nH]ccc23)C(C)(C)C)cc1 (stereo unspecified) , if possible. 35.3

Also CC(=O)Nc1cccc(OCC(O)CN(Cc2ccc(C)cc2)C(C)(C)C)c1 (stereo unspecified) , if possible. 35.9

Also COC(COc1cccc2[nH]ccc12)CN(Cc1ccccc1C)C(C)(C)C (stereo unspecified) , if possible. 22.7

Also Cc1ccc(CN(CC(O)COc2cccc3c2ccn3C)C(C)(C)C)cc1 (stereo unspecified) , if possible. 47.7
